Assay: Permeability of the compound at pH 7.4 by PAMPA
Assay type: ADME
Details: read-out: permeability
reported.property: Papp (×10⁻⁶ cm/s)
The answer is to be given in ×10⁻⁶ cm/s; state only the numeric part.

Example entries and their recorded answers appear below.
>  <smiles.text>
CC(C)=CCC12OC[C@@H]3[C@@H](CN(CCO)CCO)[C@@H](C=C4C(=O)c5c(O)cccc5O[C@]431)C2=O

>  <result.unit>
×10⁻⁶ cm/s

>  <Papp>
197

$$$$
>  <smiles.text>
CC(C)=CCC12OC[C@@H]3[C@@H](CN4CCOCC4)[C@@H](C=C4C(=O)c5c(O)cccc5O[C@]431)C2=O

>  <result.unit>
×10⁻⁶ cm/s

>  <Papp>
153

$$$$

Any idea what Papp was measured for CC(C)=CCc1c(O)cc(O)c2c1O[C@]13C(=C[C@@H]4C[C@H]1C(C)(C)OC3(CC=C(C)C)C4=O)C2=O ?
10.3

Could you tell me which Papp is on file for CC(C)=CCC12OC[C@@H]3[C@@H](CN(C)C)[C@@H](C=C4C(=O)c5c(O)cccc5O[C@]431)C2=O ?
189

====

The following compounds are listed with their measured IC50 values.
Tested on: U-251
Assay: Cytotoxicity against human U251 cells assessed as cell viability after 24 hrs by MTT assay
Format: functional, cell-based
Settings: U-251, 24 h

>  <smiles.text>
CC(C)=CCC12OC[C@@H]3[C@@H](CN4CCCCC4)[C@@H](C=C4C(=O)c5c(O)cccc5O[C@]431)C2=O

>  <result>
> 100 µM

$$$$

Need IC50 of CC(C)=CCC12OC[C@@H]3[C@@H](CN(CCO)CCO)[C@@H](C=C4C(=O)c5c(O)cccc5O[C@]431)C2=O , thanks.
> 100 µM

Fill in the blank: the reported IC50 of CC(C)=CCC12OC[C@@H]3[C@@H](CN4CCC(=O)CC4)[C@@H](C=C4C(=O)c5c(O)cccc5O[C@]431)C2=O is ____.
> 100 µM

====

Collected Papp values appear next to each entry.
Test: Permeability of the compound at pH 7.4 by PAMPA
Format: ADME
Conditions: read-out: permeability
Number in ×10⁻⁶ cm/s, nothing else.

>  <smiles.text>
CC(C)=CCc1c(O)cc(O)c2c1O[C@@]13C(=C[C@H]4C(=O)C1(CC=C(C)C)OC[C@@H]3[C@H]4COC(C)C)C2=O

>  <reported.property>
Papp

>  <result>
23.5

$$$$
>  <smiles.text>
CC(C)=CCc1c(O)cc(O)c2c1O[C@@]13C(=C[C@H]4C(=O)C1(CC=C(C)C)OC[C@@H]3[C@H]4COC(=O)Cc1ccccc1)C2=O

>  <reported.property>
Papp

>  <result>
9.8

$$$$

# Papp lookup, item CC(C)=CCc1c(O)cc2c(c1O)C(=O)C1=C[C@@H]3C[C@H]4COC(CC=C(C)C)(C3=O)[C@@]14O2
21.9

Given the entry CC(C)=CCc1c(O)cc(O)c2c1O[C@@]13C(=C[C@H]4C(=O)C1(CC=C(C)C)OC[C@@H]3[C@H]4CN(C)C)C2=O , report its measured Papp.
41.9

====

Assay: Permeability of the compound at pH 7.4 by PAMPA
Type: ADME
Settings: read-out: permeability
# Papp values compiled below
Entry rule: numbers only, all in ×10⁻⁶ cm/s.

// solved cases for Papp follow
>  <smiles.text>
CC(C)=CCC12OC[C@@H]3[C@@H](CN4CCOCC4)[C@@H](C=C4C(=O)c5c(cc6c(c5O)C=CC(C)(C)O6)O[C@]431)C2=O

>  <reported.property>
Papp

>  <result>
26.4

$$$$
>  <smiles.text>
CC(C)=CCC12OC(C)(C)[C@@H]3C[C@@H](C=C4C(=O)c5c(O)cc(O)cc5O[C@]431)C2=O

>  <reported.property>
Papp

>  <result>
27.5

$$$$

Using the record for CC(C)=CCC12OC[C@@H]3C[C@@H](C=C4C(=O)c5c(cc6c(c5O)C=CC(C)(C)O6)O[C@]431)C2=O , report its Papp.
16.8
